test system: Fibroblast; assay: Incucyte cell viability with human fibroblast; assay type: toxicity, cell-based; details: 6 h, 10 µM, compound concentration 10 uM, replicate number 1; further: unitless GR value; below 1 slowed growth and below 0 cell loss
Could you label it Fulfilled if measured Growth Rate is 0.1 or higher, and Not fulfilled otherwise?

[[record]]
compound = "C[C@H]1CN(C2COC2)CCN1c1ccc(Nc2cc(-c3ccnc(N4CCn5c(cc6c5CC(C)(C)C6)C4=O)c3CO)cn(C)c2=O)nc1"
label_value = "Fulfilled"

[[record]]
compound = "Nc1ncnc2c1ccn2[C@@H]1O[C@H]([C@@H](O)c2ccccc2)[C@@H](O)[C@H]1O"
label_value = "Fulfilled"

[[record]]
compound = "Cc1sc(C(=O)c2cncnc2N[C@@H]2C[C@H](COS(N)(=O)=O)[C@@H](O)C2)cc1[C@@H]1NCCc2ccc(Cl)cc21"
label_value = "Fulfilled"

[[record]]
compound = "CCCN1CCC(C#N)(NC(=O)[C@H](CC(C)(C)C)NC(=O)N2CCOCC2)CC1"
label_value = "Fulfilled"

[[record]]
compound = "C[C@@H](CN1CCC(Cc2ccccc2)CC1)[C@@H](O)c1ccc(O)cc1"
label_value = "Not fulfilled"

[[record]]
compound = "CCCCCCCCCCCCCC(=O)O[C@@H]1[C@@H](C)[C@@]2(O)[C@@H](C=C(CO)C[C@]3(O)C(=O)C(C)=C[C@@H]23)[C@@H]2C(C)(C)[C@]12OC(C)=O [PHORBOL MYRISTATE ACETATE]"
label_value = "Fulfilled"

[[record]]
compound = "CC(=O)c1c(C)c2cnc(Nc3ccc(N4CCN(CCCCNC(=O)COc5cccc6c5C(=O)N(C5CCC(=O)NC5=O)C6=O)CC4)cn3)nc2n(C2CCCC2)c1=O (stereo unspecified)"
label_value = "Fulfilled"

[[record]]
compound = "O=C(NC[C@@H]1[C@H]2CN(C(=O)OCc3cc(C(F)(F)F)cc(C(F)(F)F)c3)C[C@@H]12)c1ccc2[nH]nnc2c1"
label_value = "Fulfilled"

[[record]]
compound = "Br.CO[C@H]1CC=C2CCN3CCC4=C(CC(=O)OC4)[C@]23C1"
label_value = "Not fulfilled"

[[record]]
compound = "O=C(Nc1cccc(C(F)(F)F)c1)c1cc(Cl)ccc1O"
label_value = "Not fulfilled"

[[record]]
compound = "Cc1c(N2CCCC2)nc2ccc(Br)cc2c1C(=O)NC[C@H](CCC(=O)O)c1ccccc1Cl"
label_value = "Fulfilled"

[[record]]
compound = "O=C(Nc1ccc(OC(F)(F)Cl)cc1)c1cnc(N2CC[C@@H](O)C2)c(-c2ccn[nH]2)c1"
label_value = "Fulfilled"

[[record]]
compound = "CC(=O)O[C@H]1C(=O)[C@@]2(C)[C@H]([C@H](OC(=O)c3ccccc3)[C@]3(O)C[C@H](OC(=O)[C@H](O)[C@@H](NC(=O)c4ccccc4)c4ccccc4)C(C)=C1C3(C)C)[C@]1(OC(C)=O)CO[C@@H]1C[C@@H]2O"
label_value = "Not fulfilled"

[[record]]
compound = "CCNCCNC(=O)c1c(C)[nH]c(/C=C2\\C(=O)Nc3ccc(F)cc32)c1C"
label_value = "Not fulfilled"

[[record]]
compound = "Cc1nn(C)c(COc2ccc(N3CCN(S(=O)(=O)N(C)C)CC3)cc2)c1-c1cccc2c(CCCOc3cccc4ccccc34)c(C(=O)O)n(CCN3CCOCC3)c12"
label_value = "Fulfilled"

[[record]]
compound = "CCN1C(=O)N(c2c(F)c(OC)cc(OC)c2F)Cc2cnc3[nH]c(CN4CCOCC4)cc3c21"
label_value = "Not fulfilled"

[[record]]
compound = "CN(C)CC#Cc1ccc2[nH]c3c(c2c1)-c1nc(N)ncc1CCC3"
label_value = "Fulfilled"

[[record]]
compound = "Cl.Cl.c1ccc2c(-c3cnn4cc(-c5ccc(N6CCNCC6)cc5)cnc34)ccnc2c1"
label_value = "Not fulfilled"

[[record]]
compound = "CNC1(C)C2CCC(C2)C1(C)C.Cl (stereo unspecified) [MECAMYLAMINE HYDROCHLORIDE]"
label_value = "Fulfilled"

[[record]]
compound = "CCOC(=O)c1ccc(N2C(=O)C(O)=C(C(=O)c3ccc(OC)cc3)C2c2ccc(F)cc2)cc1 (stereo unspecified)"
label_value = "Fulfilled"

[[record]]
compound = "COc1c(OCCCN2CCOCC2)ccc2c1N=C(NC(=O)c1cnc(N)nc1)N1CCN=C21"
label_value = "Not fulfilled"

[[record]]
compound = "Cc1ccc(NC(=O)c2ccc(CN3CC[C@H](N(C)C)C3)c(C(F)(F)F)c2)cc1Nc1nccc(-c2cncnc2)n1"
label_value = "Not fulfilled"

[[record]]
compound = "C[C@]12CC[C@@H]3c4ccc(O)cc4CC[C@H]3[C@@H]1C[C@H]1OC(=O)C[C@]12O"
label_value = "Not fulfilled"

[[record]]
compound = "Cc1csc(S(=O)(=O)N(CC(C)C)c2cc3c(cc2OCc2ccc(C(=O)O)cc2)CCC3)n1"
label_value = "Fulfilled"

[[record]]
compound = "CN1CCC(C#N)(NC(=O)[C@@H](NC(=O)N2CCOCC2)C(C)(C)C)CC1"
label_value = "Fulfilled"

[[record]]
compound = "Cc1[nH]nc(C(F)(F)F)c1Cc1sc2c(c1C(=O)N1C[C@](C)(O)CO1)c(=O)n(C)c(=O)n2C(C)C"
label_value = "Fulfilled"

[[record]]
compound = "Cc1ncc(C(=O)Nc2cc(C(C)(C)C)on2)cc1-n1cc(-c2cnn(C)c2C)nn1.Cl"
label_value = "Fulfilled"

[[record]]
compound = "CCCNc1ccc2ncc(-c3ccncc3)n2n1"
label_value = "Fulfilled"

[[record]]
compound = "CN(CCCCCCC1=C(c2cc(F)cc(F)c2)CCCc2cc(O)ccc21)CCCCS(=O)(=O)CCCC(F)(F)F"
label_value = "Not fulfilled"

[[record]]
compound = "Cl.O=C(NCCN1CCC2(CC1)C(=O)NCN2c1cccc(F)c1)c1ccc2ccccc2c1"
label_value = "Not fulfilled"

